- TARGET_ENTITY: Human FXR full length (Homo sapiens)
- Construct: Human FXR full length and RXR full length was obtained from Ronald Evans' laboratory; expressed in transfected cells; host or cells: CV-1 cells
- Sequence (Q96RI1 1-476 isoform Q96RI1-1): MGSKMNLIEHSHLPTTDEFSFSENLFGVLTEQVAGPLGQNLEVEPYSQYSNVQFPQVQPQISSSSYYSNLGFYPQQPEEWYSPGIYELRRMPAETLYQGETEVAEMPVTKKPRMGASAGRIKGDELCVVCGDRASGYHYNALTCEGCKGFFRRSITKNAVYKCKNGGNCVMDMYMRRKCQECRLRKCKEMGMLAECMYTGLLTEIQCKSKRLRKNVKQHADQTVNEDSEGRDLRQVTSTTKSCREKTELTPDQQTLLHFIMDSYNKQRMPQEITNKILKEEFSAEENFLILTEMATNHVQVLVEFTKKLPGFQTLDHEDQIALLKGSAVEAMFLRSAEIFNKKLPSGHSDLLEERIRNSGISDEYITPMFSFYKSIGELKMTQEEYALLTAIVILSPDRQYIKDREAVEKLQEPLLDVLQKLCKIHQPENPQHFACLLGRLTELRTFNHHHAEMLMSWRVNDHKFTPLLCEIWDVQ
- Sequence (P19793 whole entry partner): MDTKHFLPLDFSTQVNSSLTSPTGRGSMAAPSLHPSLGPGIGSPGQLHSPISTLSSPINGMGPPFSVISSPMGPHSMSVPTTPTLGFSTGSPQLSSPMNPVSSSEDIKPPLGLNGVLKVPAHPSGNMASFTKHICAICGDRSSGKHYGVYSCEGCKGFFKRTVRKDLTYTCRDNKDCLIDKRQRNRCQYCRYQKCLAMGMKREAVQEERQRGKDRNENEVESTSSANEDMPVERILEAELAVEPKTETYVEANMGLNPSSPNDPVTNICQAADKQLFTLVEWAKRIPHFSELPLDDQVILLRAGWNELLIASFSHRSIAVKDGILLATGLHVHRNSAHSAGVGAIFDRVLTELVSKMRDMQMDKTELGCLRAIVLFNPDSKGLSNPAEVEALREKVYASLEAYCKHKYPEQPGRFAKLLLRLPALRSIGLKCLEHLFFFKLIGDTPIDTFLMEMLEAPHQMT
- PROTOCOL_DESCRIPTION: FXR activity screen, luciferase reporter in transfected CV-1 cells
- Assay type: cell-based
- PROTOCOL_CONDITIONS: first round; CV-1 cells, 24 hours; read-out: 1st RND EC50
pEC50: −log10 of the molar value.
RECORDED_METRIC: pEC50

Solved entries:
COC(=O)/C=C/c1cc(F)cc(N(Cc2ccc(-c3ccc4c(cnn4C)c3)cc2)C(=O)c2ccccc2)c1 [NSSK00058]
5.92
[2H]C(c1ccc(-c2ccc3c(cnn3C)c2)cc1Cl)N(C(=O)C1CCCCC1)c1cncc(/C=C/C(=O)OC)c1 (stereo not shown) [NSSK00095]
5.85

[P] [2H]C(c1ccc(-c2ccc(N(C)C)cc2)cc1Cl)N(C(=O)c1ccccc1)c1cncc(/C=C/C(=O)OC)c1 (stereo not shown) [NSSK00065]
[Q] [2H]C(c1ccc(-c2ccc3c(cnn3C)c2)cc1F)N(C(=O)C1CCCCC1)c1cncc(/C=C/C(=O)OC)c1 (stereo not shown) [NSSK00012]
**Query** Looking at P and Q , which one comes out lower in pEC50 terms? Your answer should be the label attached to the chosen record.
**Result** P
(P: 5.48, Q: 5.92)

[P] [2H]C(c1ccc(-c2ccc(N(C)C)cc2)cc1Cl)N(C(=O)C1CCCCC1)c1cncc(/C=C/C(=O)OC)c1 (stereo not shown) [NSSK00032]
[Q] [2H]C(c1ccc(-c2ccc(N(C)C)cc2)cc1)N(C(=O)c1ccccc1)c1cccc(/C=C/C(=O)OC)c1 (stereo not shown) [NSSK00048]
[R] [2H]C(c1ccc(-c2ccc3c(cnn3C)c2)cc1F)N(C(=O)c1ccccc1)c1cccc(/C=C/C(=O)OC)c1 (stereo not shown) [NSSK00038]
**Query** Your job: order these 3 records by pEC50, ascending. Answer by writing out the labels in the requested order.
**Result** P, R, Q
(P: 5.59, R: 5.86, Q: 6.42)

[1] COC(=O)/C=C/c1cccc(N(Cc2ccc(-c3ccc(N(C)C)cc3)cc2)C(=O)c2ccccc2)c1 [NSSK00053]
[2] COC(=O)/C=C/c1cncc(N(Cc2cccc3cc4cnn(C)c4c(Cl)c23)C(=O)C2C[C@H]3CC[C@@H]2C3)c1 (stereo partly shown) [NSSK00022]
[3] [2H]C(c1ccc(-c2ccc3c(cnn3C)c2)cc1F)N(C(=O)C1CCCCC1)c1cc(F)cc(/C=C/C(=O)OC)c1 (stereo not shown) [NSSK00011]
[4] [2H]C(c1ccc(-c2ccc3c(cnn3C)c2)cc1)N(C(=O)c1ccccc1)c1cc(F)cc(/C=C/C(=O)OC)c1 (stereo not shown) [NSSK00051]
**Query** // sort entries: pEC50, high to low Answer by writing out the labels in the requested order.
**Result** 3, 1, 4, 2
(3: 6.54, 1: 6.28, 4: 5.96, 2: 5.49)
